- Assay Target: human CLDN6 fused to GFP, expressed on engineered HEK293T cells (human) (UniProt P56747)
- Method Summary: FACS, 293T clone with human CLDN6, 0.3 ug Ab
Measured Quantity: FACS signal
Note: the reply should be a number with no unit written.

Binder	Result
AB3-7 (antibody, V domains shown) VH: EVQLLESGGGLVQPGGSMRLSCAASGFTFSNYWMNWVRQAPGKGLEWVAQIRLKSDNYATHYADSVKGRFTISRDDSKNTVYLQMNSLRAEDTGVYYCNDGPPSGSWGQGTLLTVSS VL: DIQMTQSPSSLSASVGDRVTITCRISENIYSYLAWYQQKPGKAPKLLVYNAKILVEGVPSRFSGSGSGTDFTLTISSLQPEDFGTYYCQHHYTVPWTFGQGTKLEIK	106000
AB18-chim (antibody, V domains shown) VH: QVQLKQSGPELEKPGASVKISCKASGYSFTGYNMNWVKQSNGKSLEWIGNIDPYYGGSTYNQKFTGKATLTVDKSSSTAYMQLKSLTSEDSAVYYCARERSGYVFSAMDYWGQGTSVTVSS VL: NIMMTQSPSSLAVSAGEKVTMSCKSSQSVLFSSNQKNYLAWYQQKPGQSPRLLIYWASTRESGVPDRFTGSGSGTDFTLTISNVQAEDLAVYYCHQYLSSRTFGAGTKLELK	73800

Please examine the following record next.
The binder listed as AB1-6 (antibody, V domains shown) VH: QVQLVQSGAEVKKPGASVKMSCKASGYTFTTYTMHWVRQAPGQGLEWIGFINPSSGYTDYAQKFQGRVTLTADTSTSTVYMELSSLRSEDTAVYYCANGDYYVAYWGQGTLVTVSS VL: DIQMTQSPSSLSASVGDRVTITCTASSSVSSTYFHWYQQKPGKAPKLLIYSTSNLASGVPSRFSGSGSGTDYTLTISSLQPEDFATYYCHQYHRSPLTFGQGTKLEIK shows FACS signal equal to 120000
